Tested on: LoVo colorectal adenocarcinoma cell line
Assay: MTT cytotoxicity assay on LoVo cells
Assay type: cell-based
Conditions: MTT, 48 h treatment
[s4U] = 4-thiouridine base; m = 2'-O-methyl; r = 2'-OH (RNA)
So I've got a bunch of substances here, and I need their IC50 values.
Give bare numbers, in nM.

EC83-M1 mimic: modified EC83 dsRNA; antisense SEQ ID NO: 1 GCCGAAG[s^4U]GGCGAAAUCGGUAG, sense SEQ ID NO: 4 CUACCGAUUUCGCCACUUCGGC (antisense GCCGAAGUGGCGAAAUCGGUAG; antisense: RNA, [s4U] at 8, backbone not given here; sense: RNA, backbone not given here; tRNA-derived fragment mimic duplex): 43.6
EC83-M3 mimic: modified EC83 dsRNA; antisense SEQ ID NO: 3 GCCGAAG[s^4U]GGCGAAAUC[Gm]GUAG, sense SEQ ID NO: 6 CUACCGAUUUCGCCACUUCGGC (antisense GCCGAAGUGGCGAAAUCGGUAG; antisense: sugars from the 5' end r17 m1 r4, [s4U] at 8, backbone not given here; sense: RNA, backbone not given here; tRNA-derived fragment mimic duplex): 24.1
EC83 mimic: 22 bp dsRNA; antisense SEQ ID NO: 89 GCCGAAGUGGCGAAAUCGGUAG, sense SEQ ID NO: 183 CUACCGAUUUCGCCACUUCGGC; 5′-t of tRNA-Leu(CAA) (RNA, backbone not given here; tRNA-derived fragment mimic duplex) [22 bp dsRNA; 5′-t of tRNA-Leu(CAA)]: 28.8

Next:
Request: What value of IC50 has been reported for the following substance? EC83-M2 mimic: modified EC83 dsRNA; antisense SEQ ID NO: 2 GCCGAAGUGGCGAAAUC[Gm]GUAG, sense SEQ ID NO: 5 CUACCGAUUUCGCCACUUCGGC (antisense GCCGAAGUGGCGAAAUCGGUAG; antisense: sugars from the 5' end r17 m1 r4, backbone not given here; sense: RNA, backbone not given here; tRNA-derived fragment mimic duplex)
Response: 19.9
